# Tested on: UO-31 renal
# method: NCI-60 one-dose screen, 48 h
# applied_conditions: 10 µM unless noted
The panel holds about 83,000 compounds, 20% with a hit somewhere; the sample as a whole holds those more often. The source made the active and inactive calls. How the source made its calls: active means growth percent below 10; inactive means the rest.
Hi! Could you answer with just one of these? active, inactive

molecule | system_name | class_label
Cc1[nH]n(C(N)=S)c(=O)c1N=Nc1ccc(F)c(Cl)c1 | UO-31 renal | inactive
O=C(CSc1nc2c(n1Nc1ccccc1)-c1ccccc1SC2)Nc1nc(-c2ccc(Cl)cc2)cs1 | UO-31 renal | inactive
CCCCCCCCCCCCCCCCN=C(CC(=O)O)C(=O)O | UO-31 renal | inactive
O=C(Nc1ccc(Cl)cc1Cl)Nc1ccc(-c2cccnc2)cc1N1CCC(CO)CC1 | UO-31 renal | inactive
NC(=O)c1ccccc1NC(=O)c1ccccc1Cl | UO-31 renal | inactive
O=C(Nc1ccncc1)C(=O)c1cn(S(=O)(=O)c2cccc(F)c2)c2ccccc12 | UO-31 renal | inactive
CC1SC(c2c(Cl)cccc2Cl)N(NC(=O)c2[nH]c3ccc(F)cc3c2-c2ccccc2)C1=O (stereo not given) | UO-31 renal | active
CCCCCCCCCCCCCCCCCc1nccn1CCO | UO-31 renal | inactive
CCC(C)CC(C)C(=O)c1c(O)ccn(O)c1=O (stereo not given) | UO-31 renal | active

# evaluate next
Ask | Call for entry `CCOC(=O)c1ccccc1OC(=O)NNc1ccccc1` :
Reply | inactive
